test: yeast display, Sf9 membrane polyspecificity reagent, FACS + sequencing; frameworks hold sequencing errors
MEASURE_NAME: polyreactivity (PSR sort gate)

In the examples that follow, each entry is paired with its recorded polyreactivity (PSR sort gate).
QVQLVESGGGLVQAGGSLRLSCAASGRIFYGYARGWYRQAPGKERELVATITWSGGSTYYADSVKGRFTISRDNAKNTVYLQMNSLNPEDTAVYYCAAYSPYIYQAYRYDYWGQGTQVTVSS :: low polyreactivity
QVQLVESGGGLVQAGGSLRLSCAASGSNSSFYAMGWYRQAPGKERELVAGITSGGSTNYADSVKGRFTISRDNAKNTVYLQLNSLKPEDTAVYYCAAERTPSFRAYDYWGQGTLVTVSS :: low polyreactivity
QVQLVESGGGLVQAGGSLRLSCAASGRTFIHYAMVWYRQAPGKERELVAAISRRGGSTYYADSVKGRFTISRDNAKNTVYLQMNSLKPEDTAVYYCAKATTTREPKYGYWGQGTQVTVSS :: high polyreactivity
QVQIVESRGGLVQAGGSLRLSCDASGRTILIYAMGWYRQAPRKERELVAAITSGGRTKYADSVKGRFTISRDNGKNTVFLQMNSQKPEDTAVYYCAAESNRLRYYYWGQGSQVTVSS :: high polyreactivity
QVQLVESGGGLVQAGGSLRLSCAASGFTMARYAMGSYRQAPGKERELVAAISWSGGSTYYADSVKGRFTISRDNAKNTVYLQMNSLKPEDTAVYYCNAVYATRIGFDYWGQGTQVTVSS :: high polyreactivity
QVQLVESGGGLVQAGGTLRLSCAASGSTFRWYAMGWYRQAPGKERELVAAITSSGSTYYADSVKGRFTISRDNAKNTVYLQMNSLKPEDTAVYYCAARAKGYWNTYEHDSWGQGIQVTVSS :: low polyreactivity
QVQLVESGGGLVQAGGSLRLSCAASGSTFTWNAMGWYRQAPGKERELGASISGRGGSTYYADSVKGRFTISRDNAKNTVYLQMNSLKPEDTAVYYCAARGVSYHYPSGYDYWGQGTQVTVSS :: high polyreactivity
QVQLVESGGGLVQAGGSLRLSCAASGSTFHPYAMGWYIQAPGKERELVAAITWRVGSTYYADSVKGRFTISRDNAKNTVYLQMNSLKPEDTAVFYCAVSYLSSLGRSRYDYWGQGTQVTVSS :: low polyreactivity

Kindly indicate its recorded polyreactivity (PSR sort gate). Item: `QVQLVESGGGLDQAGGSLRLSSAASGLTFFSEYAMGLYRQPPGIERELVASIDWSGDSTYYADSVKGRFTISRDNAMKTVYLQMNSLKPEYTAVYYCAKDYSTEISQEYYYWVQGTQVTVSS`
high polyreactivity

Fill in reported polyreactivity (PSR sort gate) for this entry: `QVQLVESGGGLLQAGGSLRLSCAASGRTFSVNAMGWYRQAPGKERELVATITWSGSSTSYADSVKGRFTISRDNAKNTVDLQMNSLKPEDTAVYYCAADLWTLIYLTDTYGHWGQATQVTVSS`
low polyreactivity

State its polyreactivity (PSR sort gate) for this sequence: `QVQLVESGGGLVQAGGSLRLSCAASGSTFLSNAMGWYRPAPGKERELVAGIDYNDGSTYYADSVKGRFTISRDNAKNTVYLQMNSLKPEDTAVYYCAARWVFRRYVIGMDYWGQGTQVTVSS`
low polyreactivity

Answer with the recorded polyreactivity (PSR sort gate) of `QVQLVESGGGLVQAGGSLRLSCAASGSIFTGNAMGWYRQAPGKERELVAAIRRSGA` only.
low polyreactivity

Indicate the recorded polyreactivity (PSR sort gate) value for this sequence: `QVQLVESGGGLVQAGGSLRLSCAASGRTLDSNAMGWYRQAPGKERELVAAISSAGSTNYADSVKGRFTISRDNAKNTVYLQMNRLQPEDTAVYYCAADLIGSHDYWGQGTQVTVSS`
low polyreactivity

====

experiment: yeast display, Sf9 membrane polyspecificity reagent, FACS + sequencing; frameworks hold sequencing errors
MEASURE_NAME: polyreactivity (PSR sort gate)

QVQLVESGGGLVQAGGSLRLSCAASGRIFYFNAMGWYRQAPGKERELVAAISWSGSRTFYADSVTGRFTISRDNAKNTVYLQMNSLKPEDTAVYYCAVRGYMWNAGNTIRRDYWGQGTQVTVSS :: high polyreactivity
QVQLVESGGGLVQAGGSLRLSCAASGRIFRVYAMGWYRQAPGKERELVAAISSGGSTNYADSVKGRFTISRDNANNTVYLQMNSLKPEDTAVYYCAATVRGVGYRYYYWGQGTQVTVSS :: high polyreactivity
QVQLVESGAGLVQAGGILRLSCAASGRTFKVYAMGWDRQAPGKERELVAAISDRGGSTYDADSVKGRFTISRDYAKNTVYLQMNSLKPVDTAVYYCSAEYARSTWRAFPELDYWGQGTQVTVSS :: low polyreactivity
QVQLVESGGGLVQAGGSLRLSCAASGYILWNAMGWYRQAPGKERELVAAIRFRGGSTSYADSVKGRFTISRDNAKNTVYLQMNSLKPEDTAVYYCNARWWVIRPYQRHDYWGQGTQVTVSS :: low polyreactivity

Identify measured polyreactivity (PSR sort gate) corresponding to `QVQLVESGGGLVQAGGSLRLSCAASGFPFVYYVMGWYRPAPGKERELVAAINAGGGYTYYADSVKGRFTISRDNAKNTVYVQMNSLKPEDTAVYYCNARVRVRLGRNWSSYYYWGQGTQVTVSS`
high polyreactivity

Supply recorded polyreactivity (PSR sort gate) for `QVQLVESGGRLVQAGGSIRLSCAASGSIFVQYAMGWYRPAPGKERELVAAIDFSDTSTYYADSVKGLFTISRDNAKITVYLQMNSLKPEDTAVYYCAAEEDSPSRSAIAVEEYLGQGTQVTVSS` here.
low polyreactivity

Answer with reported polyreactivity (PSR sort gate) of `QVQLVESGGGLVQAGGSLRLSCAASGGTFKFFAMGLYRQAPGKERELVAAITSGGSTNYADSVKGRFTISRDNAKNTVYLQMNRLKPEDTAVYYCAVDSLPNSPYDYWGQGTQVTVSS`
low polyreactivity

Report polyreactivity (PSR sort gate) for `QVQLVESGGGLVQAGGSLRLSCAASGIIFYSYAMGWYRQAPGKERELVATISFSGDNTYYADSVKGRFTISRDNAKNTVYLQMNSLKPEDTAVYYCAAASTYGGYYYSVSFEYWGQGTQVTVSS`
low polyreactivity

In one line, give reported polyreactivity (PSR sort gate) of the entry `QVQLVETGRGLVQAGGSLRLSCAASGSTFWPNAMGWYRQAPGKDRELVAAITSGGGTKYADSVKGRFTISRDNAKNTVYLQMNSLKPEDTAVYYCAKRKGDRGAWNHAYGWEDVDYWGQGTQVTVSS` .
low polyreactivity

Supply measured polyreactivity (PSR sort gate) of `QVQLVESGGGLVQAGGSLRLSCAASGRIFFVNAMGWYRQAPGKERELVAAISRGGSTNYADSVKGRFTISRDNAKNTVYLQMNSLKPEDTEVYYCNADGSSYWYPVPLDGGDYWGQGTQVTVSS` in your reply.
low polyreactivity

Answer with the recorded polyreactivity (PSR sort gate) of `QVQLVESGGGLVQAGGSLRLSCAASGFIFRAYVMGWYRQAPGKERELVAAISYRGGSTNYADSVKGRFTISRDTAKNTVYLHMNSLKPEDTAVYYCAADQVHKREYDYWGQGTQVTVSS` only.
low polyreactivity

====

assay: yeast display, Sf9 membrane polyspecificity reagent, FACS + sequencing; frameworks hold sequencing errors
MEASURE_NAME: polyreactivity (PSR sort gate)

QVQLVESGGGLVQAGGSLRLSCAASGSIFYQYAMGWYRQAPGKERELVARIRGSTGTTYYADSVKGRFTFSRDYAKNTVYLQMNSLKPEDNAVYYCNAARYQGRSRFDYWGQGTQVTVSS :: high polyreactivity
QVQLVESGGGLVQAGGSLRLSCAASGFIFGYYVMGLYTQAPGKERELVAAITTSGGSTYYADSVKGRFTISRDNAKNTVYLQMNSLKPEDTAVYYCAADGSPSLLDYWGQVTQVTVSS :: high polyreactivity

====

experiment: yeast display, Sf9 membrane polyspecificity reagent, FACS + sequencing; frameworks hold sequencing errors
MEASURE_NAME: polyreactivity (PSR sort gate)

Solved cases below.
QVQLVESGGGLVQAGGSLLISCAASGITFDGYAMGWYRHAPGKESELVARITATGFRTYYADSVKGRFTISRDYAKNTVYLKMNSLKPEDTAVYYCPRTTSCVQNVRKYYYWGQGTQVTVSS :: high polyreactivity
QVQLVESGGGLVQAGGSLRLSCAASGSTFYDYVMGWYRQAPGKERELFAAISRTGASTYYADSVKGRFTISRDNAKNTVYLQMNSLKPVDTAVYYCAADSDTVRYYYWGQGTQVTVSS :: high polyreactivity
QVQLVESGGGLVQAGGSLRLSCAASGSTFGGNAMGWYRQAPGKERELVAAISSGDSTTYADSVKGRFTISRDNAKNTVYLQMNSLKPEDTAVYYSNRSPKSGQVTYLYSVNAHYDYWGQGTQVTVSS :: low polyreactivity
QVQLVESGGGLVQAGGSLRLRCAASGFTLLWNSMGWYRQAPGKEREFVAVISSGGSTNYADSVKGRFTISRDNAKNTVYLQMNSLKPEDTAVYYCATRRPSSSSAAAWFYYWGQGTQVTVSS :: low polyreactivity
QVQLVESGGGLVQAGGSLRLICAASGNTFVRYYMGWYRQAPGKEREFVAAITASGGSTFADSVKGRFTISRDNAKNTVYLQMNSLKPEDTAVYYCNAGNSSTGVDRYDYWGQGTQVSVSS :: low polyreactivity
QVQLQESGGGLVQAGGSLLSCAASGTISWVDEMGWYRQAPGNERELVAGIAGGGNTNYADSVKGRFTISRDNAKNTVYLQMNSLDTAVYYCAVVGFGGGTHIYWGQGTQVTVSS :: high polyreactivity
QLQLVESGGGLVQAGGSLRLSCAATGYISNAMGWYRQPPGKERELVAAISRSGGSTYYADSVKGRFTISRDNAKNTVYLQMNSLKPEDTAVYYCAADYTYHDRRLDYWGQGTQVTVSS :: low polyreactivity
QVQLVESGGGLVQAGGSLRLSCAASGSIFRKYAMGWYRQAPGKERELVAVITTDGSTNYADSVKGRFTISRDNAKNTVYLQMNSLKPEDTAVYYCNAVRSSIGTDNDYWGQGTQVTVSS :: low polyreactivity
QVQLLESGGGLVQAGGILRLRCAASGIIVRGYVMGWYRQAPGKESELVAAISTSGGRTSYADSVKGRFTISRDNAKNTVYLQMNSLKPEDTAVYYCAARPLYSYSQSGYGYWGQGTQVTVSS :: high polyreactivity
QVQLVESGGGLVQAGGSLRLSCAASGRIFARNAMGWSRQAPGKERELVAASSSGGGSTYYADSVKGRFTISRDNAKNTVYLRMISLKPEDTAVYYCAARTRITYDWGQGTQVTVSS :: low polyreactivity

Output polyreactivity (PSR sort gate) of `QVQLVESGVGLVQAGGSLRLSCAASGSTFGRYAMGWYRQAPGKERELVARISWGGGSTYYADSVKGRFTISRDNAKNTVYILMISLKPEDSAVYDCATRVYRSAVSYDYWGQGTQVTVSS`
high polyreactivity

Specify reported polyreactivity (PSR sort gate) for the sequence shown: `QVQLVESGGGLVQAGGSLRLSCAASGRIFYPYAMGWYRQAPGKERELVAAISRSGGSTYYADTVKGRFTISRDNAKNTVYLQMNSLKPEDTAVYYCAAEVVYFYSDAHIGYVDYEYWGQGTQVTVSS`
low polyreactivity

# return recorded polyreactivity (PSR sort gate) for entry `QVQLVESGGGLVQAGGSLRLSCAASGFIFELYAMGWYRQAPGKERDLVAVISYDGGSTYYADSVKGRFTISRDNAKNTVYLQMNSLKPEDTAVYYCNTYAGLVSPSDLYDYWGQGTQVTVSS`
low polyreactivity

Tell us which polyreactivity (PSR sort gate) value is on record for `QVQLVESGGGLVQAGGSLRLSCAASGGIFGKYVMGWYRQAPGKERELVAGISRSAGITYYADSVKGRFTISRDNAKNTVYLQMNSLKPEDTAVYYCNARAWSYPSYHVGYDYWGQGTQVTVSS`
high polyreactivity

Identify measured polyreactivity (PSR sort gate) associated with `QVQLVESGGGLVQAGGSLRLSCAASGRTFYRYVMAWYRQAPRKERELVADITRSGGSTYYADSVKGRFTISRDNAKNTVYLQMNSLKPEDTAVYYCNKRYRVWFDYWGQGTQVTVSS`
high polyreactivity

Return polyreactivity (PSR sort gate) (reported value) for this sequence: `QVQLVESGGGLVQAGGSLRLSCAASGRIFRYNTIGWYRQAPGKERELVADITSSDSSTNYADSVKGRFTISRDTAKNTVYLQMNSLKPEDTAVYYCNAVIYFKFDWGQGTQVTVSS`
low polyreactivity

Tell me measured polyreactivity (PSR sort gate) for `QVQLVESGGGLVQAGGSLRLSCAASGRTFGPYAMGWYRQAPGKERELVAAIRYIDDSTFYADSVKGRFTISRDNAKNTVYLQMNSLKPEDTAVYYCAAQRRVVGRHGLSLIRYDYWGQGTQVTVSS` please.
low polyreactivity

Answer with the recorded polyreactivity (PSR sort gate) of `QVQLVESGGGLVQAGGSLRLSCAASGSIFRYYAMGWYRQAPGKERELVAVITRGGSTYYADSVKGRFTISRDNAKNTVYLQMNRLKPEDTAVYYCAADFWPAGLDRGYWGQGTQVTVSS` only.
low polyreactivity
